- Study target: NMDA (N-methyl-D-aspartate) receptors
- Test: Binding of 3H-5,7-dichlorokynurenic acid to rat cerebra membrane material
- Measurement conditions: displacement of 3H-5,7-dichlorokynurenic acid, membrane material from rat cerebra, incubated on ice for 30 minutes
pKi: −log10 of the molar value.

[
  {
    "Cpd smiles": "O=c1[nH]c2cc(-n3cccc3)c(C(F)(F)F)cc2[nH]c1=O",
    "Study target": "NMDA (N-methyl-D-aspartate) receptors",
    "pKi": "> 5.00"
  }
]
